- System: OVCAR-4 ovarian
- ASSAY TEXT: NCI-60 one-dose screen, 48 h
- CONDITION SET: 10 µM unless noted
This is part of a sample that, as a whole, favours compounds with a hit. Of some 83,000 tested, about 20% had one in any assay. Activity calls are given as the source filed them. The calls were made as follows: active = growth percent below 10; inactive = the rest.
The categories you may choose from are active, inactive

Prompt line: Kindly provide the recorded test outcome for the following compound: COc1ccc(Nc2c3ccccc3nc3ccccc23)cc1
Response line: inactive

Prompt line: Kindly provide the recorded test outcome for the following compound: COC(=O)/C=C/c1cc(O)c2oc(-c3ccc(O)c(O)c3)c(C(=O)OC)c2c1
Response line: inactive

Prompt line: Kindly provide the recorded test outcome for the following compound: COc1ccc(C(=O)NCCNc2nccc(-c3c(-c4ccc(F)cc4)nc4sccn34)n2)cc1
Response line: inactive

Prompt line: Kindly provide the recorded test outcome for the following compound: CCOC(=O)C1=NN(c2ccccc2)C2=NC(=O)/C(=C\c3cn(-c4ccccc4)nc3-c3cc4ccccc4o3)C(=O)N12
Response line: inactive

Prompt line: Kindly provide the recorded test outcome for the following compound: CCCCCCNc1nc(N2CCOCC2)c2[nH]c(NCCCCCC)nc2n1
Response line: active

Prompt line: Kindly provide the recorded test outcome for the following compound: Nc1cc(N)c2nc(NCCc3ccc(Cl)c(Cl)c3)cnc2c1
Response line: active

Prompt line: Kindly provide the recorded test outcome for the following compound: CCOC(=O)C(C)C(C)(O)c1ccccc1 (stereo not drawn)
Response line: inactive

Prompt line: Kindly provide the recorded test outcome for the following compound: COc1cc2ncnc(-n3ncc4cc(NC(=O)Nc5ccccc5)ccc43)c2cc1OC
Response line: active

Prompt line: Kindly provide the recorded test outcome for the following compound: O=C(/C=C1\C(=O)N(Cc2ccccc2)c2ccccc21)c1ccc(OCCN2CCCCC2)cc1
Response line: active

Prompt line: Kindly provide the recorded test outcome for the following compound: CC1=NN(c2cccc(Cl)c2)C(=O)/C1=C\c1cn(-c2nc(N3CCOCC3)nc(N3CCOCC3)n2)c2ccccc12
Response line: inactive

Prompt line: Kindly provide the recorded test outcome for the following compound: CCN(CC)C(=O)C1(C)CCCC2(C)c3cc(OC(C)=O)ccc3CCC12 (stereo not drawn)
Response line: inactive

Prompt line: Kindly provide the recorded test outcome for the following compound: COC(=O)C(Cc1cnc[nH]1)N1CC(=O)N2[C@@H](c3ccccc3)SC[C@H]2C1=O (stereo partly drawn)
Response line: inactive

Prompt line: Kindly provide the recorded test outcome for the following compound: Cc1ccc(S(=O)(=O)Nc2cccc(Cn3c(=O)[nH]c4ccc(Oc5ncccn5)cc4c3=O)c2)cc1
Response line: inactive

Prompt line: Kindly provide the recorded test outcome for the following compound: CCOC(=O)/C(C#N)=C(/CC)OCC
Response line: inactive

Prompt line: Kindly provide the recorded test outcome for the following compound: CC([C@H]1CCC2C3CCC4C[C@@H](N)CC[C@]4(C)C3CC[C@@]21C)N(C)C (stereo partly drawn)
Response line: inactive

Prompt line: Kindly provide the recorded test outcome for the following compound: CCCCN(CCCC)CC(O)CN(CC)CC (stereo not drawn)
Response line: inactive

Prompt line: Kindly provide the recorded test outcome for the following compound: COC1NC(Cl)=C(C#N)C(C#N)(C#N)C1(C)C (stereo not drawn)
Response line: inactive

Prompt line: Kindly provide the recorded test outcome for the following compound: O=C(Cc1ccccc1[N+](=O)[O-])c1ccc2c(c1)OCO2
Response line: inactive

Prompt line: Kindly provide the recorded test outcome for the following compound: COc1ccc(C2=NN(C(=O)c3cc(-c4ccc(C)cc4)nc4ccccc34)C(c3cc(-c4ccccc4)nn3-c3ccccc3)C2)cc1 (stereo not drawn)
Response line: inactive

Prompt line: Kindly provide the recorded test outcome for the following compound: COc1ccc2c(c1)/C(=C1/S/C(=N/c3nnc(C)s3)NC1=O)C(=O)N2Cc1ccc(Br)cc1
Response line: inactive

Prompt line: Kindly provide the recorded test outcome for the following compound: C/C=C(/C)C(=O)OC1C=C(CO)C(=O)C(OC(=O)C(C)(O)C(C)Cl)C1C(C)C (stereo not drawn)
Response line: inactive

Prompt line: Kindly provide the recorded test outcome for the following compound: CNc1nc2ncn(C)c2c(=O)[nH]1
Response line: inactive

Prompt line: Kindly provide the recorded test outcome for the following compound: COc1nc(OC)nc(-c2cc(C(=O)c3ccc(Br)cc3)n3cc(C)cc(C)c23)n1
Response line: inactive

Prompt line: Kindly provide the recorded test outcome for the following compound: CCCCCCCCC(=O)Nc1ccc(O)cc1
Response line: inactive

Prompt line: Kindly provide the recorded test outcome for the following compound: C/C=C(/C)C(=O)OC1C=C(CO)C(=O)C(OC(=O)C2(C)OC2C)C1C(C)C (stereo not drawn)
Response line: inactive

Prompt line: Kindly provide the recorded test outcome for the following compound: CCCCn1c(Cc2ccc(OC)cc2)nc2cc(OC)c(OC)cc2c1=O
Response line: inactive

Prompt line: Kindly provide the recorded test outcome for the following compound: Clc1ccc(N/N=C(/c2ccccc2)c2ccccn2)nc1
Response line: inactive

Prompt line: Kindly provide the recorded test outcome for the following compound: Cn1cnc2nc[nH]c2c1=S
Response line: inactive

Prompt line: Kindly provide the recorded test outcome for the following compound: O=C(C(=O)N1CCOCC1)c1ccc(O[C@H]2O[C@H](CO)[C@@H](O)[C@H](O)[C@@H]2O)cc1
Response line: inactive

Prompt line: Kindly provide the recorded test outcome for the following compound: COC(=O)[C@H](Cc1cn(C)cn1)NC(=O)[C@H](Cc1c[nH]c2ccccc12)NC(=O)Nc1cc(C(F)(F)F)cc(C(F)(F)F)c1
Response line: active

Prompt line: Kindly provide the recorded test outcome for the following compound: O=[N+]([O-])c1ccc(-c2ncc(-c3ccc(O)cc3O)[nH]2)cc1
Response line: inactive

Prompt line: Kindly provide the recorded test outcome for the following compound: O=C1/C(=N\c2cc(=O)[nH]n2S(=O)(=O)c2ccccc2)Nc2ccccc21
Response line: inactive

Prompt line: Kindly provide the recorded test outcome for the following compound: O=C(N/N=C/c1ccccc1Cl)c1cccc2ccccc12
Response line: inactive

Data credit: PubChem BioAssay (NCI)
